The reader will find reported pIC50 values listed item by item below.
# Tested on: HeLa
# Method: Cytostatic activity against human HeLa cells assessed as reduction in cell viability after 48 hrs by MTT assay
# Type: functional, cell-based
Please keep in mind that pIC50 is minus log10 of the molar concentration; only the number is needed.

Examples with answers:
Smiles Code	pIC50
CCOC(=O)C[n+]1cccc2cc(OP(=O)([O-])OC[C@H]3O[C@@H](n4cc(F)c(=O)[nH]c4=O)C[C@@H]3OC(=O)c3ccccc3)ccc21	6.22
C[N+](C)(CCOP(=O)([O-])OC[C@H]1O[C@@H](n2cc(F)c(=O)[nH]c2=O)C[C@@H]1OC(=O)c1ccccc1)Cc1ccccc1	5.82

According to the records, this molecule "C[N+](C)(C)CCOP(=O)([O-])OC[C@H]1O[C@@H](n2cc(F)c(=O)[nH]c2=O)C[C@@H]1OC(=O)c1ccccc1" displays pIC50 of 5.44

According to the records, this molecule "C[N+]1(C)CCC(OP(=O)([O-])OC[C@H]2O[C@@H](n3cc(F)c(=O)[nH]c3=O)C[C@@H]2OC(=O)c2ccccc2)CC1" displays pIC50 of 4.57

According to the records, this molecule "CCCCCCCCCc1ccc(OP(=O)(O)OC[C@H]2O[C@@H](n3cc(F)c(=O)[nH]c3=O)C[C@@H]2OC(=O)c2ccccc2)cc1" displays pIC50 of 4.40

According to the records, this molecule "CCOC(=O)C[n+]1cccc(OP(=O)([O-])OC[C@H]2O[C@@H](n3cc(F)c(=O)[nH]c3=O)C[C@@H]2OC(=O)c2ccccc2)c1" displays pIC50 of 5.21

According to the records, this molecule "O=c1[nH]c(=O)n([C@H]2C[C@H](O)[C@@H](COP(=O)(O)Oc3cccnc3)O2)cc1F" displays pIC50 of 6.15

According to the records, this molecule "O=C(O[C@H]1C[C@H](n2cc(F)c(=O)[nH]c2=O)O[C@@H]1COP(=O)(O)Oc1cccnc1)c1ccccc1" displays pIC50 of 5.16

According to the records, this molecule "O=C(O[C@H]1C[C@H](n2cc(F)c(=O)[nH]c2=O)O[C@@H]1COP(=O)([O-])Oc1ccc[n+](Cc2ccccc2)c1)c1ccccc1" displays pIC50 of 6.28

According to the records, this molecule "CCCCCCCCCC[n+]1cccc(OP(=O)([O-])OC[C@H]2O[C@@H](n3cc(F)c(=O)[nH]c3=O)C[C@@H]2OC(=O)c2ccccc2)c1" displays pIC50 of 5.92

According to the records, this molecule "O=c1[nH]c(=O)n([C@H]2C[C@H](O)[C@@H](COP(=O)(O)Oc3ccc4ncccc4c3)O2)cc1F" displays pIC50 of 5.14

According to the records, this molecule "O=C(O[C@H]1C[C@H](n2cc(F)c(=O)[nH]c2=O)O[C@@H]1COP(=O)(O)Oc1ccc2ncccc2c1)c1ccccc1" displays pIC50 of 5.14

###

The reader will find reported selectivity ratio values listed item by item below.
# Method: Selectivity index, ratio of IC50 for human MRC5 cells to IC50 for human U118MG cells
# Format: toxicity
# Particulars: MRC5 cells and U118MG cells, read-out: Ratio IC50
Keep the answer to the number alone.

Compound	selectivity ratio
CCOC(=O)C[n+]1cccc(OP(=O)([O-])OC[C@H]2O[C@@H](n3cc(F)c(=O)[nH]c3=O)C[C@@H]2OC(=O)c2ccccc2)c1	6
O=C(O[C@H]1C[C@H](n2cc(F)c(=O)[nH]c2=O)O[C@@H]1COP(=O)(O)Oc1ccccc1)c1ccccc1	1
C[n+]1cccc(OP(=O)([O-])OC[C@H]2O[C@@H](n3cc(F)c(=O)[nH]c3=O)C[C@@H]2OC(=O)c2ccccc2)c1	2
O=C(O[C@H]1C[C@H](n2cc(F)c(=O)[nH]c2=O)O[C@@H]1COP(=O)([O-])Oc1ccc[n+](Cc2ccccc2)c1)c1ccccc1	26
C[N+]1(C)CCC(OP(=O)([O-])OC[C@H]2O[C@@H](n3cc(F)c(=O)[nH]c3=O)C[C@@H]2OC(=O)c2ccccc2)CC1	2

According to the records, this compound C[N+]1(Cc2ccccc2)C2CCC1CC(OP(=O)([O-])OC[C@H]1O[C@@H](n3cc(F)c(=O)[nH]c3=O)C[C@@H]1OC(=O)c1ccccc1)C2 (some centres undefined) displays selectivity ratio of 1

According to the records, this compound "CCCCCCCCCC[n+]1cccc(OP(=O)([O-])OC[C@H]2O[C@@H](n3cc(F)c(=O)[nH]c3=O)C[C@@H]2OC(=O)c2ccccc2)c1" displays selectivity ratio of 44
